Exercise: state measured abundance fitness for each of the variants provided.
B1: Chromodomain-helicase-DNA-binding protein 5, residues 338 to 390; numbered along this chain, Q8TDI0 (parent)
chain: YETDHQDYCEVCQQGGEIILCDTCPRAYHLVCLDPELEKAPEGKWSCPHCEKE

# Variants of: B1
# TEST_METHOD_NOTES: abundance fitness (aPCA) (normalised: wild type 0, dead -1); higher = more abundant; growth selection in yeast, the domain comes from the species named
# DETAILS: Homo sapiens
Answers are plain numbers.

> print(dat)
   changes            measure  obs.value
1     E38H  abundance fitness     -0.207
2     I19S  abundance fitness     -0.104
3     W45E  abundance fitness     -0.202
4     P41L  abundance fitness     -0.135
5     K52W  abundance fitness     -0.082
6     R26H  abundance fitness      0.493

Provide abundance fitness values for the following items, in order.
1. R26P
2. H29D
3. L30N
4. C32Q

Reply:
-0.87
-0.451
-0.047
-0.982

Provide abundance fitness values for the following items, in order.
1. I19Y
2. K39A
3. E36V
4. H49P
5. K52S
6. T23S
7. K44L

Reply:
1. -0.226
2. -0.081
3. 0.205
4. -0.024
5. -0.115
6. -0.01
7. -0.009

Provide abundance fitness values for the following items, in order.
1. V31W
2. R26K
3. P48T
4. Y28G
5. A40E

Reply:
1: -0.566; 2: 0.094; 3: -0.006; 4: -0.125; 5: -0.274
